molecular target: T1, Anti-CD28 Fab (SEQ ID NOs: 696, 697); test: phage ELISA on plate-bound anti-CD28 Fab pre-incubated with CD28 antigen as competitor
T1 construct: In the phage ELISA the Fab was biotinylated and captured on neutravidin coated plates
T1 sequence (VH, as listed by the source, chain 1 of 2): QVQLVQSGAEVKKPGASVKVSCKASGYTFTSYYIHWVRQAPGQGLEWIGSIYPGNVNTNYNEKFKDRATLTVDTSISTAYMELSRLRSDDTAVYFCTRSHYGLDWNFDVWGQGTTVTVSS
T1 sequence (VL, as listed by the source, chain 2 of 2): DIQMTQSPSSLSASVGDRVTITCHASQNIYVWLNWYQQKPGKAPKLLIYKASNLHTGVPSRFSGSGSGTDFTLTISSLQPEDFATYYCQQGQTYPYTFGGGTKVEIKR
Where no end group is shown, it is not given here.
Recorded measurements of Anti-CD28 Fab signal in the presence of CD28 (phage binding ELISA), one per entry

BINDER	MEASURED_RESULT
MCAAGFHYPWPACL (cysteine pairing not given here; also: fused to phage pIII protein) [Phage-1374 peptide (SEQ ID NO: 1670)]	0.1
TCSAGATYTWPWCF [Phage-1388 peptide (SEQ ID NO: 1684)]	0.07

Switching to the query record.
Short answer for TCSAGATYTWSKCF [Phage-1386 peptide (SEQ ID NO: 1682)] : Anti-CD28 Fab signal in the presence of CD28 (phage binding ELISA) was 0.06
